// provenance: paper PMC10769324

Below: a set of entries, each annotated with reported log(Ki).
- TARGET UNDER TEST: UniProtKB P28223
- Sequence (P28223 whole entry): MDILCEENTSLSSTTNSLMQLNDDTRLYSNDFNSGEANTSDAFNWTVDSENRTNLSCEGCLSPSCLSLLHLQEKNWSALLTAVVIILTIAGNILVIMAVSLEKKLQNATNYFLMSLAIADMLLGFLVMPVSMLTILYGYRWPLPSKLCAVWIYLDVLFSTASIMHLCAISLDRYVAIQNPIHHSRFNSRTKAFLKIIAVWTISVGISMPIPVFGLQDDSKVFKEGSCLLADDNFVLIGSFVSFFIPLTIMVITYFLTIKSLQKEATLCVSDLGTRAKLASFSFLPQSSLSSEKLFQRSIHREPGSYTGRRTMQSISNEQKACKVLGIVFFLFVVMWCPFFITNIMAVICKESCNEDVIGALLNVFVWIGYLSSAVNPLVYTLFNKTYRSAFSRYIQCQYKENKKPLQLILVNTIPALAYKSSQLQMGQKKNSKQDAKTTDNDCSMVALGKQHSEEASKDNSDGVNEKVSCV
- Type: binding
- CONDITION LABEL: printed as log(Ki) with negative sign; [3H]-LSD 0.5 nM, HEK293 membranes
Lab note: jot the number down without any unit.

CCN(Cc1cc(Br)ccc1O)C(=O)C(N)Cc1ccco1 (stereo not shown) ... −6.94
COc1ccc(COCCN(C)C(C)Cc2ccc(O)cc2)cc1 (stereo not shown) ... −6.77
c1ccc(O[C@H]2CCN(Cc3ccc(-c4ccn[nH]4)o3)C2)cc1 ... −6.79
C=C/C=C/CCN1CCC(O)(c2cccc(Br)c2)C1 (stereo not shown) ... −6.49

For record COc1ccccc1CC1CCN(CC(=O)c2cc(C)[nH]c2C)C1 (stereo not shown) the listed log(Ki) is −6.46

Input C=CCNC(=O)C(C)N1CCCC(c2ccc(O)cc2)C1 (stereo not shown) . Output log(Ki): −6.95

What the record says about NC1Cc2ccccc2N(Cc2cc(O)cc(Br)c2)C1 (stereo not shown) : log(Ki) is −7.14

Oc1ccc(C2=CCN(CC3CC34CC4)CC2)cc1 (stereo not shown) has a reported log(Ki) of −7.62

Recorded log(Ki) (molecule O=C(c1cc(C2CCNC2)[nH]n1)N1CCC(c2cccc(Cl)c2)C1 (stereo not shown) ): −6.51

Lab note: CN(C(=O)c1cn[nH]n1)C1CCN(CCc2cccc(Cl)c2Cl)C1 (stereo not shown) gave log(Ki) of −7.78
